Exercise: state measured Diuretic effect for each of the compounds provided.
test system: Rattus norvegicus; assay: Compound was evaluated for diuretic activity determined by the ability to induce electrolytic excretion (Cl-) at a time period of 0-24 hr for dose 81 mg/kg; assay type: functional, Urine
Numbers only.

Compound: Nc1noc(-c2nc(Cl)c(N)nc2N)n1
Diuretic effect: 344
--
Compound: N=C(N)NC(=O)c1nc(Cl)c(N)nc1N [AMILORIDE]
Diuretic effect: 328
--
Compound: CN(C)c1nc(N)c(-c2nc(N)no2)nc1Cl
Diuretic effect: 267

# get_value(readout='Diuretic effect', item= C[n+]1oc(-c2nc(Cl)c(N)nc2N)nc1N.[I-] ) 326

----------
So I've got a bunch of compounds here, and I need their Diuretic effect values.
test system: Rattus norvegicus; assay: Compound was evaluated for diuretic activity determined by the ability to induce electrolytic excretion (Na+) at a time period of 0-5 hr for dose 9 mg/kg; assay type: functional, Urine
Answers are plain numbers.

// worked examples, Diuretic effect included
Compound: Nc1noc(-c2nc(Cl)c(N)nc2N)n1
Measured result: 69
--
Compound: CN(C)c1nc(N)c(-c2nc(N)no2)nc1Cl
Measured result: 88
--
Compound: C[n+]1oc(-c2nc(Cl)c(N)nc2N)nc1N.[I-]
Measured result: 79
--
Compound: CN(C)c1nc(N)c(-c2nc(N)[n+](C)o2)nc1Cl.[I-]
Measured result: 60

Okay, now this compound:
For the record N=C(N)NC(=O)c1nc(Cl)c(N)nc1N [AMILORIDE] , what value of Diuretic effect is listed for Rattus norvegicus? 162

----------
Field: Diuretic effect. Provide a value for each of the compounds that follow.
system: Rattus norvegicus; experiment: Compound was evaluated for diuretic activity determined by the ability to induce electrolytic excretion (Cl-) at a time period of 0-5 hr for dose 81 mg/kg; type: functional, Urine
Numbers only.

Look over these answered cases.
Compound: CN(C)c1nc(N)c(-c2nc(N)no2)nc1Cl
Diuretic effect: 57

Compound: CN(C)c1nc(N)c(-c2nc(N)[n+](C)o2)nc1Cl.[I-]
Diuretic effect: 95

Compound: Nc1noc(-c2nc(Cl)c(N)nc2N)n1
Diuretic effect: 73

Hey, can you go through the list below and give me Diuretic effect for every item?
1. C[n+]1oc(-c2nc(Cl)c(N)nc2N)nc1N.[I-]
2. N=C(N)NC(=O)c1nc(Cl)c(N)nc1N [AMILORIDE]

1. 95
2. 93

----------
tested on: Rattus norvegicus; test: Compound was evaluated for diuretic activity determined by the ability to induce electrolytic excretion (K+) at a time period of 0-5 hr for dose 9 mg/kg; assay type: functional, Urine
Kindly state Diuretic effect for each of the entries shown.
Answers are plain numbers.

The following compounds each have a reported value; give each one's Diuretic effect.
1. C[n+]1oc(-c2nc(Cl)c(N)nc2N)nc1N.[I-]
2. N=C(N)NC(=O)c1nc(Cl)c(N)nc1N [AMILORIDE]
3. Nc1noc(-c2nc(Cl)c(N)nc2N)n1

1: 2; 2: 6; 3: 4

// for each compound in input: emit Diuretic effect
1. CN(C)c1nc(N)c(-c2nc(N)no2)nc1Cl
2. CN(C)c1nc(N)c(-c2nc(N)[n+](C)o2)nc1Cl.[I-]

1. 2
2. 2

----------
test system: Rattus norvegicus; experiment: Compound was evaluated for diuretic activity determined by the ability to induce electrolytic excretion (K+) at a time period of 0-24 hr for dose 81 mg/kg; assay type: functional, Urine; set-up: unit: mequiv × 100
Reported endpoint: Diuretic effect
One number for each entry.

Example compounds with recorded Diuretic effect:
Compound: CN(C)c1nc(N)c(-c2nc(N)[n+](C)o2)nc1Cl.[I-]
Diuretic effect: 68
//
Compound: C[n+]1oc(-c2nc(Cl)c(N)nc2N)nc1N.[I-]
Diuretic effect: 96
//
Compound: CN(C)c1nc(N)c(-c2nc(N)no2)nc1Cl
Diuretic effect: 53
//
Compound: N=C(N)NC(=O)c1nc(Cl)c(N)nc1N [AMILORIDE]
Diuretic effect: 47

Moving on to another compound below.
Data request, read-out Diuretic effect, for Nc1noc(-c2nc(Cl)c(N)nc2N)n1 72
